Answer each item with its documented Phage binding ELISA Backgroud signal.
System: anti-CD28 scFv
protocol summary: Phage binding ELISA (panning) of clonal phage on anti-CD28 scFv, with or without CD28 soluble protein
condition info: clonal phage supernatant; background (no anti-CD28 scFv signal)
Please give the numeric answer without any surrounding text.

**Query** For Phage-384 (IMWCPTSLWNRCVT) , what is its reported Phage binding ELISA Backgroud signal?
**Result** 0.104

**Query** Entry Phage-434 (IVWCPTTQWNRCAT) please
**Result** 0.113

**Query** Another substance to check: Phage-418 (MYWCPKYMWSECFA)
**Result** 0.072

**Query** Repeat for the following substance: Phage-444 (VNQCTRYRWAECLN)
**Result** 0.465

**Query** Check Phage-403 (MSWCPWDMWNECFA) too.
**Result** 0.069

**Query** Queued: Phage-412 (QHWCPRDMWNDCYA)
**Result** 0.066

**Query** Next record, please: Phage-427 (VILCPTTMWNRCFH)
**Result** 0.100
